System: U2OS
Experiment: Multiplex assay against U2OS
Type: toxicity, cell-based
Settings: human, 48 h, 1 µM, compound concentration 1 uM
Non-standard residues stand in square brackets, D forms with d. Residues, ends and D or L forms follow the SMILES beside them.
ASSAY READOUT: Population Normal (%)

Prompt line: Hello, I am looking for reported Population Normal (%) with U2OS for "COc1ccc(Cl)cc1[C@]1(F)C(=O)Nc2cc(C(F)(F)F)ccc21" . Could you help?
Response line: 100%

Prompt line: Quick one: "CCOc1ccccc1C(=O)NCC1(N2CCN(CC)CC2)CCCCC1"
Response line: 100%

Prompt line: Quick one: "O=C(Nc1cc(C(F)(F)F)cc(C(F)(F)F)c1)c1cc(Cl)ccc1O"
Response line: 100%

Prompt line: Quick one: "CCCC(CCC)C(=O)O"
Response line: 96%

Prompt line: Quick one: "CC(C)CC(=O)Nc1cncc(-c2ccc3[nH]nc(-c4nc5c(-c6cccc(F)c6)cncc5[nH]4)c3c2)c1"
Response line: 100%

Prompt line: Quick one: CC(C)C[C@@H]1NC(=O)[C@@H](C(C)C)NC(=O)[C@@H]2CCCN2C(=O)[C@@H](CC(=O)O)NC(=O)[C@@H](Cc2c[nH]c3ccccc23)NC1=O [BQ-123] (cyclo(L[dW][dD]P[dV]))
Response line: 98%

Prompt line: Quick one: "O=C1c2c(Br)c(Br)c(Br)c(Br)c2C(=O)N1c1ncc[nH]1"
Response line: 100%

Prompt line: Quick one: "CCn1cnc2c(-c3ccc(F)c(-c4ccc(S(=O)(=O)CC)cc4OC)c3)cnnc21"
Response line: 100%

Prompt line: Quick one: "COCCNc1cc(NC(=O)N2CCCc3cc(CN4CCOCC4=O)c(C=O)nc32)ncc1C#N"
Response line: 100%

Prompt line: Quick one: "C[C@H]1[C@H]2CC[C@H]3[C@@H]4CC=C5C[C@@H](N(C)C)CC[C@]5(C)[C@H]4CC[C@]23CN1C"
Response line: 97%

----------
System: U2OS
Assay: Multiplex assay against U2OS
Assay type: toxicity, cell-based
Details: human, 12 h, 1 µM, compound concentration 1 uM
ASSAY READOUT: Population Hoechst High Intensity Objects (%)
Give the value; after it, write the unit.

Prompt line: Dear colleague, I am looking for the recorded Population Hoechst High Intensity Objects (%) of the following compound: "CNc1nc(NCc2ncccn2)c2c(-c3ccc4ncccc4c3)c[nH]c2n1"
Response line: 0%

Prompt line: Quick one: "COc1cc(C(=O)N(CCCc2ccccc2)Cc2ccc(CC(=O)O)cc2)cc(OC)c1C"
Response line: 4%

Prompt line: Quick one: "Cl.Clc1cc2cc(c1)-c1cnn3ccc(nc13)NCCOCCO2"
Response line: 0%

Prompt line: Quick one: "CN(C)Cc1cccc(NC(=C2C(=O)Nc3cc(C(N)=O)ccc32)c2ccccc2)c1"
Response line: 0%

Prompt line: Quick one: Cc1ccc(F)cc1C(=O)Nc1ccc(C(=O)N2Cc3cccn3Cc3ccccc32)c(Cl)c1 [LIXIVAPTAN]
Response line: 3%

Prompt line: Quick one: CC(C)CC(=O)Nc1cncc(-c2ccc3[nH]nc(-c4nc5c(-c6cccc(F)c6)cncc5[nH]4)c3c2)c1 [LORECIVIVINT]
Response line: 0%

Prompt line: Quick one: Cc1noc(C)c1-c1cnc2c(-c3ccc(C(=O)O)cc3)cn([C@@H](C)c3ccccn3)c2c1 [PLX-51107]
Response line: 0%

Prompt line: Quick one: COc1ccc(Cl)cc1[C@]1(F)C(=O)Nc2cc(C(F)(F)F)ccc21 [FLINDOKALNER]
Response line: 0%

Prompt line: Quick one: "CCOc1ccccc1C(=O)NCC1(N2CCN(CC)CC2)CCCCC1"
Response line: 0%

Prompt line: Quick one: CCn1cnc2c(-c3ccc(F)c(-c4ccc(S(=O)(=O)CC)cc4OC)c3)cnnc21 [DARIGABAT]
Response line: 0%

Prompt line: Quick one: "CN(C)c1ccnc2sc3c(=O)n(N4CCCCCC4)cnc3c12"
Response line: 1%

Prompt line: Quick one: "O=C1c2c(Br)c(Br)c(Br)c(Br)c2C(=O)N1c1ncc[nH]1"
Response line: 0%

Prompt line: Quick one: "O=C(NCCO)c1cccc(-c2cc(Nc3ccc(OC(F)(F)F)cc3)ncn2)c1"
Response line: 1%

Prompt line: Quick one: "COCCNc1nc2ccc(C#CC3(O)CCCCC3)cc2n1-c1ccnc(N)n1"
Response line: 0%

Prompt line: Quick one: N[C@@]1(C(=O)O)CO[C@H]2[C@H](C(=O)O)[C@H]21 [LY-379268]
Response line: 0%

Prompt line: Quick one: "CN(C)CCOc1ccc(/C(=C(/CCCO)c2ccccc2)c2ccc(O)cc2)cc1"
Response line: 0%

Prompt line: Quick one: "Cl.c1ccc2c(c1)CCC[C@H]2Nc1nc2ccccc2[nH]1"
Response line: 0%

Prompt line: Quick one: "CC(C)C[C@H](NC(=O)c1cc2ccccc2s1)C(=O)N1CCN(C(=O)[C@H](CO)NS(=O)(=O)c2ccc(Cl)cc2Cl)CC1"
Response line: 0%

Prompt line: Quick one: O=C(Nc1ccccc1Br)N[C@@H]1CCN(c2ccc(C(F)(F)F)cn2)C1 [SB-705498]
Response line: 0%

Prompt line: Quick one: "COc1ccc(-n2c(C)c([N+](=O)[O-])c3ccc(O)cc32)cc1"
Response line: 0%

Prompt line: Quick one: "Clc1ccccc1C(c1ccccc1)(c1ccccc1)n1cccn1"
Response line: 0%

Prompt line: Quick one: "FC(F)(F)c1ccccc1-c1cc(C(F)(F)F)c2[nH]c(C3=NOC4(CCCCC4)C3)nc2c1"
Response line: 0%

Prompt line: Quick one: "COCCNc1cc(NC(=O)N2CCCc3cc(CN4CCOCC4=O)c(C=O)nc32)ncc1C#N"
Response line: 0%

----------
Kindly supply the reported Population Normal (%) values for the records listed here.
System: U2OS
Test: Multiplex assay against U2OS
Type: toxicity, cell-based
Conditions: human, 24 h, 10 µM, compound concentration 10 uM
Value expressed in %; do not type the unit.

Prompt line: Dear colleague, I am looking for the recorded Population Normal (%) of the following compound: "Cc1ccc(F)cc1C(=O)Nc1ccc(C(=O)N2Cc3cccn3Cc3ccccc32)c(Cl)c1"
Response line: 95

Prompt line: Quick one: "CC(C)C[C@H](NC(=O)c1cc2ccccc2s1)C(=O)N1CCN(C(=O)[C@H](CO)NS(=O)(=O)c2ccc(Cl)cc2Cl)CC1"
Response line: 100

Prompt line: Quick one: "COc1ccc(Cl)cc1[C@]1(F)C(=O)Nc2cc(C(F)(F)F)ccc21"
Response line: 100

Prompt line: Quick one: "Cc1onc(-c2ccccc2Cl)c1C(=O)N(C)c1ccc(Cl)cc1"
Response line: 96

Prompt line: Quick one: "CN(C)CCOc1ccc(/C(=C(/CCCO)c2ccccc2)c2ccc(O)cc2)cc1"
Response line: 100

Prompt line: Quick one: "FC(F)(F)c1ccccc1-c1cc(C(F)(F)F)c2[nH]c(C3=NOC4(CCCCC4)C3)nc2c1"
Response line: 100

Prompt line: Quick one: "CCn1cnc2c(-c3ccc(F)c(-c4ccc(S(=O)(=O)CC)cc4OC)c3)cnnc21"
Response line: 100

Prompt line: Quick one: "CCOc1ccccc1C(=O)NCC1(N2CCN(CC)CC2)CCCCC1"
Response line: 100

Prompt line: Quick one: "CNc1nc(NCc2ncccn2)c2c(-c3ccc4ncccc4c3)c[nH]c2n1"
Response line: 100

Prompt line: Quick one: Cl.Clc1ccc2nsnc2c1NC1=NCCN1 [TIZANIDINE HYDROCHLORIDE]
Response line: 97

Prompt line: Quick one: "O=C1COc2nccc(-c3ccccc3F)c2CN1Cc1cc(C(F)(F)F)cc(C(F)(F)F)c1"
Response line: 94

Prompt line: Quick one: "COc1ccccc1N1CCN(C[C@@H](C(=O)NC(C)(C)C)c2ccccc2)CC1.Cl.Cl"
Response line: 94

Prompt line: Quick one: "O=C(Nc1ccccc1Br)N[C@@H]1CCN(c2ccc(C(F)(F)F)cn2)C1"
Response line: 100

Prompt line: Quick one: "COCCNc1nc2ccc(C#CC3(O)CCCCC3)cc2n1-c1ccnc(N)n1"
Response line: 100

Prompt line: Quick one: "CC(C)CC(=O)Nc1cncc(-c2ccc3[nH]nc(-c4nc5c(-c6cccc(F)c6)cncc5[nH]4)c3c2)c1"
Response line: 100

Prompt line: Quick one: "N[C@@]1(C(=O)O)CO[C@H]2[C@H](C(=O)O)[C@H]21"
Response line: 98

Prompt line: Quick one: "Cc1noc(C)c1-c1cnc2c(-c3ccc(C(=O)O)cc3)cn([C@@H](C)c3ccccn3)c2c1"
Response line: 100

Prompt line: Quick one: "C[C@H](N)COC(=O)[C@@H](CCCCN)NC(=O)Cc1c(-c2ccc3ccccc3c2)[nH]c2c1ccc1ccccc12"
Response line: 97

----------
Kindly supply the reported Population Hoechst High Intensity Objects (%) values for the records listed here.
Tested on: HEK-293T
Assay: Multiplex assay against HEK293T
Format: toxicity, cell-based
Conditions: human, 12 h, 10 µM, compound concentration 10 uM
Give the value; after it, write the unit.

Prompt line: Dear colleague, I am looking for the recorded Population Hoechst High Intensity Objects (%) of the following compound: "CN(C)CCOc1ccc(/C(=C(/CCCO)c2ccccc2)c2ccc(O)cc2)cc1"
Response line: 0%

Prompt line: Quick one: "COCCNc1nc2ccc(C#CC3(O)CCCCC3)cc2n1-c1ccnc(N)n1"
Response line: 0%

Prompt line: Quick one: "Cc1noc(C)c1-c1cnc2c(-c3ccc(C(=O)O)cc3)cn([C@@H](C)c3ccccn3)c2c1"
Response line: 0%

Prompt line: Quick one: "CC(C)CC(=O)Nc1cncc(-c2ccc3[nH]nc(-c4nc5c(-c6cccc(F)c6)cncc5[nH]4)c3c2)c1"
Response line: 0%

Prompt line: Quick one: "CCCC(CCC)C(=O)O"
Response line: 6%
